- experimentDescription: Selectivity ratio of Ki for mu opioid receptor to kappa opioid receptor
Threshold 20: Ratio Ki strictly smaller gives Y, otherwise N.

compound	class
CCCCC(=O)O[C@H]1C[C@@H](C(=O)OC)[C@]2(C)CCC3C(=O)O[C@H](c4ccoc4)C[C@]3(C)[C@H]2C1=O (single isomer, unassigned)	N
CCCC(=O)O[C@H]1C[C@@H](C(=O)OC)[C@]2(C)CCC3C(=O)O[C@H](c4ccoc4)C[C@]3(C)[C@H]2C1=O (single isomer, unassigned)	N
COC(=O)[C@@H]1C[C@H](OC(=O)c2cccc(Br)c2)C(=O)[C@H]2[C@@]1(C)CCC1C(=O)O[C@H](c3ccoc3)C[C@@]12C (single isomer, unassigned)	Y
COC(=O)[C@@H]1C[C@H](OC(=O)CNC(=O)OC(C)(C)C)C(=O)[C@H]2[C@@]1(C)CCC1C(=O)O[C@H](c3ccoc3)C[C@@]12C (single isomer, unassigned)	N
COC(=O)[C@@H]1C[C@H](OC(=O)c2ccccc2Br)C(=O)[C@H]2[C@@]1(C)CCC1C(=O)O[C@H](c3ccoc3)C[C@@]12C (single isomer, unassigned)	Y

---

- experimentDescription: Selectivity ratio of Ki for delta opioid receptor to kappa opioid receptor
Listed here are compounds together with their documented Ratio Ki.

compound	resultOperator	Ratio Ki
CCCCC(=O)O[C@H]1C[C@@H](C(=O)OC)[C@]2(C)CCC3C(=O)O[C@H](c4ccoc4)C[C@]3(C)[C@H]2C1=O (single isomer, unassigned)	=	265
CCC(=O)O[C@H]1C[C@@H](C(=O)OC)[C@]2(C)CC[C@H]3C(=O)O[C@H](c4ccoc4)C[C@]3(C)[C@H]2C1=O	=	2730
CCCC(=O)O[C@H]1C[C@@H](C(=O)OC)[C@]2(C)CCC3C(=O)O[C@H](c4ccoc4)C[C@]3(C)[C@H]2C1=O (single isomer, unassigned)	=	1010
COC(=O)[C@@H]1C[C@H](OC(=O)c2ccc(Br)cc2)C(=O)[C@H]2[C@@]1(C)CCC1C(=O)O[C@H](c3ccoc3)C[C@@]12C (single isomer, unassigned)	=	2
COC(=O)[C@@H]1C[C@H](OC(=O)Cc2ccccc2)C(=O)[C@H]2[C@@]1(C)CCC1C(=O)O[C@H](c3ccoc3)C[C@@]12C (single isomer, unassigned)	>	30
COC(=O)[C@@H]1C[C@H](OC(=O)CNC(=O)OC(C)(C)C)C(=O)[C@H]2[C@@]1(C)CCC1C(=O)O[C@H](c3ccoc3)C[C@@]12C (single isomer, unassigned)	>	100
COC(=O)[C@@H]1C[C@H](OC(=O)CCc2ccccc2)C(=O)[C@H]2[C@@]1(C)CC[C@H]1C(=O)O[C@H](c3ccoc3)C[C@]21C	=	52
COC(=O)[C@@H]1C[C@H](OS(=O)(=O)c2ccc(C)cc2)C(=O)[C@H]2[C@@]1(C)CCC1C(=O)O[C@H](c3ccoc3)C[C@@]12C (single isomer, unassigned)	=	74
COC(=O)[C@@H]1C[C@H](OS(=O)(=O)c2ccccc2)C(=O)[C@H]2[C@@]1(C)CCC1C(=O)O[C@H](c3ccoc3)C[C@@]12C (single isomer, unassigned)	>	150
COC(=O)[C@@H]1C[C@H](OC(=O)c2cccc(Br)c2)C(=O)[C@H]2[C@@]1(C)CCC1C(=O)O[C@H](c3ccoc3)C[C@@]12C (single isomer, unassigned)	>	100
COC(=O)[C@@H]1C[C@H](OC(=O)c2cccs2)C(=O)[C@H]2[C@@]1(C)CC[C@H]1C(=O)O[C@H](c3ccoc3)C[C@]21C	=	5
COC(=O)[C@@H]1C[C@H](OC(=O)c2ccccc2)C(=O)[C@H]2[C@@]1(C)CC[C@H]1C(=O)O[C@H](c3ccoc3)C[C@]21C	=	12
CCCCCC(=O)O[C@H]1C[C@@H](C(=O)OC)[C@]2(C)CCC3C(=O)O[C@H](c4ccoc4)C[C@]3(C)[C@H]2C1=O (single isomer, unassigned)	=	61
COC(=O)[C@@H]1C[C@H](OC(=O)c2ccccc2Br)C(=O)[C@H]2[C@@]1(C)CCC1C(=O)O[C@H](c3ccoc3)C[C@@]12C (single isomer, unassigned)	>	100
